The binders listed here are annotated with their pKd.
Tgt: T1, human CD19 antigen (human, UniProt P15391 20-291, limits assumed)
T1 sequence (looked up): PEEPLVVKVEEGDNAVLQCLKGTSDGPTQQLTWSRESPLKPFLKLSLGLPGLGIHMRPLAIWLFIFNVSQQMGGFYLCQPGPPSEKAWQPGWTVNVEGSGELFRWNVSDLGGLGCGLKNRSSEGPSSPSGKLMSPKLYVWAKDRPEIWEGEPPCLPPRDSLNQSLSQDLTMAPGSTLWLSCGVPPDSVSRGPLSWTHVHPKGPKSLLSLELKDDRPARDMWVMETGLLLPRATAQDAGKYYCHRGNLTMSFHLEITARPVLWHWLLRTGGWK
Experimental Details: SPR (Biacore), antibody captured via Fc
Just so you know, pKd here is -log10 of the concentration in molar units; reply with that number alone.

Worked cases, pKd given:
Binder	Observed
humanized CD19 antibody VH6 + VL4 (antibody, V domains shown, also called Antibody No. 16) VH: QVQLQESGPGLVKPSQTLSVTCTVSGVSLPDYGVSWIRQPPGKGLEWLGVIWGSETTYYNAALKSRLTISKDTSKNQVSLKLSSLTAADTAVYYCAKHYYYGGSYAMDYWGQGTTVTVSS VL: DIQMTQSPSSLSASVGDRVTITCRASQDISKYLNWYQQKPGKAPKLLIYHTSRLHSGVPSRFSGSGSGTDYTLTISSLQPEDIATYYCQQANTLPYTFGGGTKLEIK	4.68
humanized CD19 antibody VH2 + VL2 (antibody, V domains shown, also called Antibody No. 5) VH: QVQLQESGPGLVKPSQTLSLTCTVSGVSLPDYGVSWIRQPPGKGLEWIGVIWGSETTYYNSALKSRVTISKDTSKNQVSLKLSSVTAADTAVYYCAKHYYYGGSYAMDYWGQGTTVTVSS VL: DIQMTQSPSSLSASVGDRVTITCRASQDISKYLNWYQQKPGKAPKLLIYHTSRLHSGVPSRFSGSGSGTDYTFTISSLQPEDIATYYCQQGNTLPYTFGGGTKLEIK	7.18
humanized CD19 antibody VH5 + VL3 (antibody, V domains shown, also called Antibody No. 15) VH: QVQLQESGPGLVKPSQTLSVTCTVSGVSLPDYGVSWIRQPPGKGLEWLGVIWGSETTYYNSALKSRLTISKDTSKNQVSLKLSSLTAADTAVYYCAKHYYYGGSYAMDYWGQGTTVTVSS VL: DIQMTQSPSSLSASVGDRVTITCRASQDISKYLNWYQQKPGKAPKLLIYHTSRLHSGVPSRFSGSGSGTDYTLTISSLQPEDIATYYCQQGNTLPYTFGGGTKLEIK	7.85
humanized CD19 antibody VH5 + VL1 (antibody, V domains shown, also called Antibody No. 13) VH: QVQLQESGPGLVKPSQTLSVTCTVSGVSLPDYGVSWIRQPPGKGLEWLGVIWGSETTYYNSALKSRLTISKDTSKNQVSLKLSSLTAADTAVYYCAKHYYYGGSYAMDYWGQGTTVTVSS VL: DIQMTQSPSSLSASVGDRVTITCRASQDISKYLNWYQQKPGKAPKLLIYHTSRLHSGVPSRFSGSGSGTDFTFTISSLQPEDIATYYCQQGNTLPYTFGGGTKLEIK	7.00
humanized CD19 antibody VH4 + VL1 (antibody, V domains shown, also called Antibody No. 10) VH: QVQLQESGPGLVKPSQTLSLTCTVSGVSLPDYGVSWIRQPPGKGLEWLGVIWGSETTYYNSALKSRLTISKDTSKNQVSLKLSSVTAADTAVYYCAKHYYYGGSYAMDYWGQGTTVTVSS VL: DIQMTQSPSSLSASVGDRVTITCRASQDISKYLNWYQQKPGKAPKLLIYHTSRLHSGVPSRFSGSGSGTDFTFTISSLQPEDIATYYCQQGNTLPYTFGGGTKLEIK	7.09

Turning now to a further binder:
Problem: Which pKd value belongs to humanized CD19 antibody VH5 + VL2 (antibody, V domains shown, also called Antibody No. 14) VH: QVQLQESGPGLVKPSQTLSVTCTVSGVSLPDYGVSWIRQPPGKGLEWLGVIWGSETTYYNSALKSRLTISKDTSKNQVSLKLSSLTAADTAVYYCAKHYYYGGSYAMDYWGQGTTVTVSS VL: DIQMTQSPSSLSASVGDRVTITCRASQDISKYLNWYQQKPGKAPKLLIYHTSRLHSGVPSRFSGSGSGTDYTFTISSLQPEDIATYYCQQGNTLPYTFGGGTKLEIK ?
Result: 7.83
